Study target: UniProtKB P30561
Assay method text: In vitro assay 3: antagonism in mouse cell line (AHR transactivation, firefly luciferase reporter, kynurenic acid prestimulated)
Assay type: cell-based
Condition description: Hepa 1c1c7 cells, 200 μM kynurenic acid, 20 hours, firefly luciferase reporter, read-out: AHR Antagonism Mouse IC50
Description: Examples were tested in selected biological assays one or more times. […] Firefly luciferase activity was determined by the SteadyGlo Luciferase Assay System (Promega, #E2550).
pIC50: −log10 of the molar value.
Use pIC50 to assign classes; range list: bottom = under 7, middle = from 7 up to 8, top = 8 and over

Molecule	Class name
C[C@H]1CN(C(=O)[C@@H](C)Nc2nc3c(Br)cccc3c3nc(-c4cnn(C)c4)nn23)CCO1 [Example 908]	middle
CC(C)S(=O)(=O)c1cccc2c1nc(N[C@@H]1CNCCNC1=O)n1nc(-c3cnn(C)c3)nc21 [Example 943]	bottom
O=C1NCCNC[C@H]1Nc1nc2c(Br)cccc2c2nc(-c3ccc(Cl)cc3)nn12 [Example 977]	top
Cn1nccc1-c1nc2c3cccc(C(F)(F)F)c3nc(N[C@@H]3CCCCNC3=O)n2n1 [Example 808]	top
COc1ccc(-c2nc3c4cccc(Br)c4nc(N[C@H](C)C(=O)N4CCO[C@H](C)C4)n3n2)cc1 [Example 907]	top
Cn1cc(-c2nc3c4cccc(Br)c4nc(N[C@H]4CS(=O)(=O)CCNC4=O)n3n2)cn1 [Example 848]	bottom
COc1ccc(-c2nc3c4cccc(OC5CCC5)c4nc(N[C@@H]4CCCCNC4=O)n3n2)cc1 [Example 998]	bottom
COc1ccc(-c2nc3c4cccc(Br)c4nc(N[C@@H]4CN(C)CCNC4=O)n3n2)cc1 [Example 995]	top
COC(=O)[C@H](Nc1nc2c(Br)cccc2c2nc(-c3ccc(OC)cc3)nn12)C(C)C [Example 867]	top
O=C1NCCNC[C@@H]1Nc1nc2c(Cl)cccc2c2nc(-c3ccc(F)cc3)nn12 [Example 964]	top
Cn1cc(-c2nc3c4cccc(Br)c4nc(N[C@H]4C[S+]([O-])CCNC4=O)n3n2)cn1 (single isomer, unassigned) [Example 849]	bottom
COCCNC(=O)[C@H](Nc1nc2c(Br)cccc2c2nc(-c3ccc(OC)cc3)nn12)C(C)C [Example 923]	top
COc1ccc(-c2nc3c4cccc(S(C)(=N)=O)c4nc(N[C@@H]4CCCCNC4=O)n3n2)cc1 (single isomer, unassigned) [Example 855]	middle
COc1ccc(-c2nc3c4c(CO)cccc4nc(N[C@@H]4CCCCNC4=O)n3n2)cc1 [Example 862]	top
CC[C@@H](Nc1nc2c(C(F)(F)F)cccc2c2nc(-c3ccnn3C)nn12)C(N)=O [Example 806]	top
CC(C)[C@@H](Nc1nc2c(Br)cccc2c2nc(-c3cnn(C)c3)nn12)C(=O)NCCN1CCN(C)CC1 [Example 927]	middle
CCn1cc(-c2nc3c4cccc(F)c4nc(N[C@@H]4CNCCNC4=O)n3n2)cn1 [Example 961]	bottom
CCCNC(=O)[C@H](C)Nc1nc2c(Br)cccc2c2nc(-c3ccc(Cl)cc3OC(F)(F)F)nn12 [Example 811]	middle

###

Study target: AHR (Mus musculus, UniProt P30561)
Sequence (P30561 whole entry P471L/N533S/M589L, form open): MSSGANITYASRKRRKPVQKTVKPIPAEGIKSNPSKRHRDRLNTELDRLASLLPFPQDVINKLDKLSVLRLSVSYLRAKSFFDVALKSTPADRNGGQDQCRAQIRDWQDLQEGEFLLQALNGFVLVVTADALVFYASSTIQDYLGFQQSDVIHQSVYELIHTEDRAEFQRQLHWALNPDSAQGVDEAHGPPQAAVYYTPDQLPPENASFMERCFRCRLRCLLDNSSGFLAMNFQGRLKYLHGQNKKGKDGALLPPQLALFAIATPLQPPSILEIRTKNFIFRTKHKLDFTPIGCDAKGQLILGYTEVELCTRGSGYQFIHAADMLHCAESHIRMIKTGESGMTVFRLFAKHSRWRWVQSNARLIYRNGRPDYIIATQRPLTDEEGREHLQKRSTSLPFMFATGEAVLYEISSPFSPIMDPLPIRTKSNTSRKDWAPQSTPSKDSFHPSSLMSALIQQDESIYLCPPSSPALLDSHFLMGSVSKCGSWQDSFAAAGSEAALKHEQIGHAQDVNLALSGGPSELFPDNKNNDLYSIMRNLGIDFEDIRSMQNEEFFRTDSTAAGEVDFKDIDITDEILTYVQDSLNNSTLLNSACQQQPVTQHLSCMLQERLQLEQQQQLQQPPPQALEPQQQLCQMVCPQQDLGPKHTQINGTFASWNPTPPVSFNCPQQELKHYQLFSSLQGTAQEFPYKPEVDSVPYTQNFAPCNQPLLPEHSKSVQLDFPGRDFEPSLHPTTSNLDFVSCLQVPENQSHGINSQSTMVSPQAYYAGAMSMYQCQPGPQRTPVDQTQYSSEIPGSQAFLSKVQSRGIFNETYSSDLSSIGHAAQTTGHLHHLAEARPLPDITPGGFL
Assay method text: In vitro assay 3: antagonism in mouse cell line (AHR transactivation, firefly luciferase reporter, kynurenic acid prestimulated)
Format: cell-based
Condition description: Hepa 1c1c7 cells, 200 μM kynurenic acid, 20 hours, firefly luciferase reporter, read-out: AHR Antagonism Mouse IC50
pIC50: −log10 of the molar value.

Compound	pIC50
O=C1NCCNC[C@H]1Nc1nc2c(C(F)(F)F)cccc2c2nc(-c3cnn(C4CC4)c3)nn12 [Example 963]	8.32
CC(C)n1cc(-c2nc3c4cccc(C(F)(F)F)c4nc(N[C@H]4CNCCNC4=O)n3n2)cn1 [Example 960]	7.03
COc1ccc(-c2nc3c4cccc(OCCC(C)(C)O)c4nc(N[C@@H]4CCCCNC4=O)n3n2)cc1 [Example 1000]	8.08
COc1ccc(-c2nc3c4cccc(Br)c4nc(N[C@H]4CNCCNC4=O)n3n2)cc1 [Example 972]	8.15
CC(C)n1cc(-c2nc3c4cccc(F)c4nc(N[C@@H]4CCCCNC4=O)n3n2)cn1 [Example 836]	8.31
COc1ccc(-c2nc3c4cccc(OCCC(C)(C)OC)c4nc(N[C@@H]4CCCCNC4=O)n3n2)cc1 [Example 996]	7.11
COc1ccc(-c2nc3c4cccc(Br)c4nc(N[C@H](C)C(=O)NCC(C)(C)N)n3n2)cc1 [Example 789]	7.77
CCn1cc(-c2nc3c4cccc(F)c4nc(N[C@@H]4CCCCNC4=O)n3n2)cn1 [Example 834]	7.97
O=C1NCCNC[C@@H]1Nc1nc2c(Br)cccc2c2nc(-c3ccc(F)cc3)nn12 [Example 973]	8.08
CC(C)n1cc(-c2nc3c4cccc(C#N)c4nc(N[C@@H]4CNCCNC4=O)n3n2)cn1 [Example 931]	6.53
COc1ccc(-c2nc3c4cccc(Br)c4nc(N[C@H](C)C(=O)N4C[C@@H]5C[C@H]4CO5)n3n2)cc1 [Example 914]	8.87
COc1ccc(-c2nc3c4cccc(C5CC5)c4nc(N[C@H]4CNCCNC4=O)n3n2)cc1 [Example 959]	6.43
C[C@@H](Nc1nc2c(Br)cccc2c2nc(-c3cnn(C)c3)nn12)C(=O)N1CC2(CN(C(=O)OC(C)(C)C)C2)C1 [Example 921]	7.01
O=C1NCCNC[C@@H]1Nc1nc2ccccc2c2nc(-c3ccc(F)cc3)nn12 [Example 965]	7.92
C[C@@H](Nc1nc2c(Br)cccc2c2nc(-c3cnn(C)c3)nn12)C(=O)N1CC2(CN(C)C2)C1 [Example 919]	6.21
N#Cc1cccc2c1nc(N[C@@H]1CNCCNC1=O)n1nc(-c3cnn(C4CCC4)c3)nc21 [Example 933]	6.86
COc1ccc(-c2nc3c4cccc(Br)c4nc(N[C@H](C)C(=O)NCCN4CCNCC4)n3n2)cc1 [Example 992]	8.11
COc1ccc(-c2nc3c4cccc(Br)c4nc(N[C@H](C)C(=O)N4C[C@@H]5C[C@H]4CN5C)n3n2)cc1 [Example 901]	8.32
